- SYSTEM_TESTED: GABAA receptors (UniProt P28472+P62813)
- Construct: expressed in transfected cells; host or cells: WSS-1 cells
- Sequence (P62813 28-455): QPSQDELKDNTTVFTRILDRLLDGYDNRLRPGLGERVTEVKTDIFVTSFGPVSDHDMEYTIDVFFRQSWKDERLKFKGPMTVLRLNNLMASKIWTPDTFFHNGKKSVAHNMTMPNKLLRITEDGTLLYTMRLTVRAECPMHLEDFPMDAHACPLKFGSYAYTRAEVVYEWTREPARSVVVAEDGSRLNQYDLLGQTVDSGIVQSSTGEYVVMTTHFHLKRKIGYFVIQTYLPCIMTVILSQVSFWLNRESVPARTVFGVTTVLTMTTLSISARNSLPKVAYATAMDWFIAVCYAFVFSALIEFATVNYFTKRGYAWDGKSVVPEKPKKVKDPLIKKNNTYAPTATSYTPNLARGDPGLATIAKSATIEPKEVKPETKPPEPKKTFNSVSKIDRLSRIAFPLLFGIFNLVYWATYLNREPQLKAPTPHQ
- Sequence (P28472 26-473): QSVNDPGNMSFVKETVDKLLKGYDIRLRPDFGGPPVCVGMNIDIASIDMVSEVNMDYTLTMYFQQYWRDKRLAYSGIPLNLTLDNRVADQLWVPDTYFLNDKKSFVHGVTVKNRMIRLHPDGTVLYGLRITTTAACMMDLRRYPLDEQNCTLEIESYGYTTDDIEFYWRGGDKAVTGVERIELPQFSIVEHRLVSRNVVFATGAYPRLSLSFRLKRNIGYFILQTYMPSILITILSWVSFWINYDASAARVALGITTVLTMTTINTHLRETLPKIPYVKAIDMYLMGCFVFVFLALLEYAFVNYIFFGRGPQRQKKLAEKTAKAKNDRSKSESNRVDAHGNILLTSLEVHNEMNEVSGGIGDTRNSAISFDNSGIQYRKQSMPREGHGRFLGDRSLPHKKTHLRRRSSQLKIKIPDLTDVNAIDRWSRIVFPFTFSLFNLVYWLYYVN
- Sequence (P18508 39-466 partner): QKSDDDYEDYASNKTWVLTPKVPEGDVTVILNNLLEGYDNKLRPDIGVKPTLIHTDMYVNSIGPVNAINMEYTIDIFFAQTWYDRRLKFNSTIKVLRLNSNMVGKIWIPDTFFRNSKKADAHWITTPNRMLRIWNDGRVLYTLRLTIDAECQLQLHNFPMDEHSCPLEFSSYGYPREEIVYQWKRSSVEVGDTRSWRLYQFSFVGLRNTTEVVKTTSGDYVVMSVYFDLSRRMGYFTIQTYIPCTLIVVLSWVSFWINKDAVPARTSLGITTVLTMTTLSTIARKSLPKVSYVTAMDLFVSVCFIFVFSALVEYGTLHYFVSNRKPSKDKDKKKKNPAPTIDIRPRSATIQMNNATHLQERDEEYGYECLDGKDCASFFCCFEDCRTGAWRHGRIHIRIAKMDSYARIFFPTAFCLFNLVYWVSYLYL
- ASSAY_TEXT: Whole-cell patch clamp antagonist dose-response, bicuculline loaded together with GABA, microfluidic scanning
- Assay type: cell-based
- CONDITIONS_USED: IC50, descending order, texp=100 ms, with 100 μM GABA
RECORDED_ENDPOINT: IC50 (µM)
Express the result in µM but write the number alone.

Given the molecule CN1CCc2cc3c(cc2[C@H]1[C@@H]1OC(=O)c2c1ccc1c2OCO1)OCO3 , what is its reported IC50?
3.56

* * *

- SYSTEM_TESTED: GABAA receptors (UniProt P28472+P62813)
- Construct: expressed in transfected cells; host or cells: WSS-1 cells
- ASSAY_TEXT: Whole-cell patch clamp antagonist dose-response, bicuculline loaded together with GABA, microfluidic scanning
- Format: cell-based
- CONDITIONS_USED: IC50, ascending order, texp=100 ms, with 100 μM GABA
RECORDED_ENDPOINT: IC50 (µM)
Express the result in µM but write the number alone.

Given the molecule CN1CCc2cc3c(cc2[C@H]1[C@@H]1OC(=O)c2c1ccc1c2OCO1)OCO3 , what is its reported IC50?
5.17
